As shown below, each of these sequences has a reported IC50 value.
TESTED_ON: HLA-B*35:01
MEASUREMENT_NOTES: IEDB peptide-MHC binding, purified MHC/competitive/radioactivity; bounds were set here for any values at or beyond the usual limits of such assays
CONDITION_PARAMETERS: source organism: Bordetella pertussis
Respond numerically; units are µM and should not be typed.

Return reported IC50. Input sequence: DAKHDLTVT 69.9

For the sequence TPLGSLFAI , report IC50. 1.34

Give a short answer stating reported IC50 for LAAVLVNPH . 69.9

Read off the recorded IC50 for FALYDGTYL 20.9

---

TESTED_ON: HLA-B*44:03
MEASUREMENT_NOTES: IEDB peptide-MHC binding, purified MHC/competitive/radioactivity; bounds were set here for any values at or beyond the usual limits of such assays
CONDITION_PARAMETERS: source organism: Bordetella pertussis
PROPERTY_LABEL: IC50

Reference set (3 entries):
Read off the recorded IC50 for YEYIWGLYP 8.39 µM

Given the sequence YEYSKGPKL , write its reported IC50. 47.7 µM

Consider the sequence DENGKPQTY and give its recorded IC50. 11.5 µM

Next:
Given AESNALSKR , respond with its IC50. 44.2 µM

State its IC50: KEDVDAAQI 34.2 µM

---

TESTED_ON: HLA-B*07:02
MEASUREMENT_NOTES: IEDB peptide-MHC binding, purified MHC/competitive/radioactivity; bounds were set here for any values at or beyond the usual limits of such assays
CONDITION_PARAMETERS: source organism: Bordetella pertussis
PROPERTY_LABEL: IC50
Could you give the number and then its unit, please?

Respond only with IC50 recorded for YATNPQTQL 69.6 µM

---

TESTED_ON: HLA-B*53:01
MEASUREMENT_NOTES: IEDB peptide-MHC binding, purified MHC/competitive/radioactivity; bounds were set here for any values at or beyond the usual limits of such assays
CONDITION_PARAMETERS: source organism: Bordetella pertussis
PROPERTY_LABEL: IC50
# do not omit the unit; it follows the number

Solved cases (2 shown):
Output IC50 of FAISAYALK 4.42 µM

State its IC50 for this sequence: TGDGGGHTD 69.9 µM

Continuing:
Retrieve IC50 measured for TPLGSLFAI and print it. 8.19 µM

Entry source: the Immune Epitope Database (IEDB)
